Test: Plasma kinetic study of celastrol with and without Schisandrin A
Type: in vivo, Sprague Dawley rats
Conditions: male, Sprague Dawley, rat, plasma, po, 1.8 mg/kg, Group2; rats, Schisandrin A 0 mg/kg oral 5 min before celastrol 1.8 mg/kg oral; read-out: T1/2 of celastrol (converted)
propertyLabel: half-life

GET /values?readout=half-life&item= CC1=C(O)C(=O)C=C2C1=CC=C1[C@@]2(C)CC[C@@]2(C)[C@@H]3C[C@](C)(C(=O)O)CC[C@]3(C)CC[C@]12C [celastrol] 12.1 h

###

Assay: Plasma kinetic study of colchicine with and without Schisandrin A
Format: in vivo
Settings: male, Sprague Dawley, rat, po, 3 mg/kg, Group7, rats, Schisandrin A 63.0 mg/kg oral 5 min before colchicine 3.0 mg/kg oral
Protocol: 42 Male Sprague Dawley rats (weight, 170-210 g) were maintained on a 12-h light/dark cycle with free access to water and lab chow for 10-14 h prior to the experiment. Rats were randomly divided into 7 groups (n=6 each) and groups 2-7 received 0 mg/kg, 6.3 mg/kg, and 12.6 mg/kg, 25.2 mg/kg, 50.4 mg/kg and 63.0 mg/kg of Schisandrin A in 1% CMC-Na (300-800 cps) via oral administration, respectively. […]
propertyLabel: Tmax (min)
Your answer should be a plain number; it is taken to be in min.

GET /values?readout=Tmax&item= `COc1cc2c(c(OC)c1OC)-c1ccc(OC)c(=O)cc1[C@@H](NC(C)=O)CC2` 15.6

###

Experiment: Plasma kinetic study of celastrol with and without Schisandrin A
Format: in vivo, Sprague Dawley rats
Settings: male, Sprague Dawley, rat, plasma, po, 1.8 mg/kg, Group6; rats, Schisandrin A 44.0 mg/kg oral 5 min before celastrol 1.8 mg/kg oral
propertyLabel: Cmax (ng/mL)
Your answer should be a plain number; it is taken to be in ng/mL.

GET /values?readout=Cmax&item= CC1=C(O)C(=O)C=C2C1=CC=C1[C@@]2(C)CC[C@@]2(C)[C@@H]3C[C@](C)(C(=O)O)CC[C@]3(C)CC[C@]12C [celastrol] 7.43

###

Assay: Plasma kinetic study of colchicine with and without Schisandrin A
Format: in vivo
Settings: male, Sprague Dawley, rat, po, 3 mg/kg, Group3, rats, Schisandrin A 6.3 mg/kg oral 5 min before colchicine 3.0 mg/kg oral, read-out: MRT0→t of colchicine
Method: 42 Male Sprague Dawley rats (weight, 170-210 g) were maintained on a 12-h light/dark cycle with free access to water and lab chow for 10-14 h prior to the experiment. Rats were randomly divided into 7 groups (n=6 each) and groups 2-7 received 0 mg/kg, 6.3 mg/kg, and 12.6 mg/kg, 25.2 mg/kg, 50.4 mg/kg and 63.0 mg/kg of Schisandrin A in 1% CMC-Na (300-800 cps) via oral administration, respectively. […]
propertyLabel: MRT last (h)
Your answer should be a plain number; it is taken to be in h.

GET /values?readout=MRT last&item= `COc1cc2c(c(OC)c1OC)-c1ccc(OC)c(=O)cc1[C@@H](NC(C)=O)CC2` 5.04

###

Assay: Plasma kinetic study of colchicine with and without Schisandrin A
Type: in vivo
Details: male, Sprague Dawley, rat, po, 3 mg/kg, Group1, rats, colchicine 3.0 mg/kg oral, no Schisandrin A dose stated
propertyLabel: Tmax (min)
Your answer should be a plain number; it is taken to be in min.

GET /values?readout=Tmax&item= `COc1cc2c(c(OC)c1OC)-c1ccc(OC)c(=O)cc1[C@@H](NC(C)=O)CC2` 10.2
